- Measured Target: T1, mouse 4-1BB protein (extracellular domain) (mouse, UniProt P20334 24-187)
- T1 construct: extracellular domain; also called mouse 4-1BB-his; mouse 4-1BB-hFc protein
- T1 sequence (looked up): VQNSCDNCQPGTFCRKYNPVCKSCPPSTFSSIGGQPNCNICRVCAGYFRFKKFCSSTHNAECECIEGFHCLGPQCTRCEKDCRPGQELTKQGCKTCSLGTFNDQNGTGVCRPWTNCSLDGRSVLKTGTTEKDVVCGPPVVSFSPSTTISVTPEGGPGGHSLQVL
- Protocol: ELISA, coated mouse 4-1BB; Ab 0.0032 ug/ml
Property Measured: OD450 nm (OD450 nm)
Entry rule: numbers only, all in OD450 nm.

Observe how each entry below is paired with its result.
>>> readout_number("57B3D10 (antibody, V domains shown, also called 4-1BB fully human antibody 57B3D10) VH: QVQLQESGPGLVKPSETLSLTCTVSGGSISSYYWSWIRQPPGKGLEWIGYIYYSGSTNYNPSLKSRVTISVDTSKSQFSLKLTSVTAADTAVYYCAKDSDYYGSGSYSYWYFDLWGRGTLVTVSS VL: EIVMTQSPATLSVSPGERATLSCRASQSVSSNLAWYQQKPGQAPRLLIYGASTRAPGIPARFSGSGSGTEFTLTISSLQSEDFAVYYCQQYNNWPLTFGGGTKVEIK")
0.2
>>> readout_number("113F6C6 (antibody, V domains shown, also called 4-1BB fully human antibody 113F6C6; 113F6F6) VH: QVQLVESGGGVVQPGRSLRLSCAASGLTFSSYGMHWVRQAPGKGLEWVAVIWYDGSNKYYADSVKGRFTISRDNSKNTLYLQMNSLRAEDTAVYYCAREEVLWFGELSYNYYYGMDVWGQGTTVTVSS VL: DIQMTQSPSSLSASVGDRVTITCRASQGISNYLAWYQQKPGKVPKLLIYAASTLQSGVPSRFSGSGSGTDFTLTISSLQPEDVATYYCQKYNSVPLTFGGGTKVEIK")
0.05
>>> readout_number("170D7F2 (antibody, V domains shown) VH: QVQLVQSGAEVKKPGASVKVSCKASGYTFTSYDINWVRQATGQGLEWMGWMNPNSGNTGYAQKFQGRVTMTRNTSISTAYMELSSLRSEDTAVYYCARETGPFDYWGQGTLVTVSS VL: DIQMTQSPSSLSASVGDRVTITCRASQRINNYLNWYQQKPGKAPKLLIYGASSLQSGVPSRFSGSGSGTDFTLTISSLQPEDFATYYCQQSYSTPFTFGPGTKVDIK")
0.14

So what's the measured OD450 nm for this one? 118F3A2 (antibody, V domains shown) VH: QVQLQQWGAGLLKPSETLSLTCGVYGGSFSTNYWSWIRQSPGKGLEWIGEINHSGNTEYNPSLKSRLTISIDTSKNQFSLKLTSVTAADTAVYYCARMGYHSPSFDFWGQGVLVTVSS VL: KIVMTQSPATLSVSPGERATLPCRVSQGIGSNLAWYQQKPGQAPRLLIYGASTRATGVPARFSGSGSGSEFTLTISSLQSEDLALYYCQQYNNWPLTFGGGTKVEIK
0.11

Field entry: 172E3E3 (antibody, V domains shown) VH: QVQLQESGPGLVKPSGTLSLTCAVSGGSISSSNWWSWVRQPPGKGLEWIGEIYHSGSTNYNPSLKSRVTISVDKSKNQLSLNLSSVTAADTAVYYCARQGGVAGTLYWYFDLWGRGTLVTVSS VL: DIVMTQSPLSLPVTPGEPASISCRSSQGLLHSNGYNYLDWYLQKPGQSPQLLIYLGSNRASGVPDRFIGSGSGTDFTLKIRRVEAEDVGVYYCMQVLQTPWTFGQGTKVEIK
0.05
